- Test system: collagen production induced by TGF-β (NHDF cells)
- EXPERIMENT NOTES: Inhibitory effect on collagen production induced by TGF-β, [3H] proline uptake (NHDF cells)
- Type: cell-based, human
- DETAILS: Homo sapiens, NHDF, 1 μM, TGF-β1 3 ng/ml
Counter-ions that a name gives are not always drawn.
Let's look at some compounds and their measured inhibition at 1 µM.

| COMPOUND | inhibition at 1 µM [%] |
| --- | --- |
| COCn1c(-c2ccccc2)c(/C=C/C(=O)N2CCc3cc(OC)c(OC)cc3C2)c2cccnc21 [Example 139, hydrochloride] | 37 |
| COC(=O)c1ccc(-c2c(/C=C/C(=O)N(C)C3CCN(C)CC3)c3cc(C)ccc3n2C)cc1 | 42 |
| COc1ccc(N2CCN(C(=O)/C=C/c3c(-c4ccccc4)n(C)c4ncccc34)CC2)cc1 | 47 |
| COC(=O)CC1c2cc(OC)c(OC)cc2CCN1C(=O)/C=C/c1c(-c2ccccc2)n(C)c2ncccc12 (stereo not shown) [Example 133, hydrochloride] | 57 |
